- assay_notes: Half life in mouse microsomes
- Assay type: ADME, Microsome
test_readout: half-life (h)
Dear colleague, please return just the value in h, with no unit written.

Measured half-life, CC(C)C(=O)Nc1ccc2oc(-c3ccc(C(C)(C)C)cc3)nc2c1 : 3.41

Measured half-life, O=C(Cc1ccccc1)Nc1ccc(-c2nc3cc(NC(=O)Cc4ccccc4)ccc3[nH]2)cc1 : 5.44

Measured half-life, Cc1ccc(S(=O)(=O)Cc2nc(-c3ccc(C(=O)NCc4cccnc4)cc3)oc2C)cc1 : 1.2

###

Give measured Papp A→B for each item. Keep answers brief.
- assay_notes: Apparent permeability of compound form apical to basolateral side in human Caco2 cells
- Assay type: ADME, cell-based
- condition_parameters: Caco-2
Dear colleague, please return just the value in ×10⁻⁶ cm/s, with no unit written.

Measured Papp A→B, CC[C@]1(O)C[C@@H]2CN(CCc3c([nH]c4ccccc34)[C@@](C(=O)OC)(c3cc4c(cc3OC)N(C)[C@H]3[C@@](O)(C(=O)OC)[C@H](OC(C)=O)[C@]5(CC)C=CCN6CC[C@]43[C@@H]65)C2)C1 [VINBLASTINE] : 0.621

Measured Papp A→B, O=C(Cc1ccccc1)Nc1ccc(-c2nc3cc(NC(=O)Cc4ccccc4)ccc3[nH]2)cc1 : 0.206

Measured Papp A→B, NC(=O)N1c2ccccc2C=Cc2ccccc21 [CARBAMAZEPINE] : 52.4

Measured Papp A→B, CC(C)C(=O)Nc1ccc2oc(-c3ccc(C(C)(C)C)cc3)nc2c1 : 7.26

Measured Papp A→B, Cc1ccc(S(=O)(=O)Cc2nc(-c3ccc(C(=O)NCc4cccnc4)cc3)oc2C)cc1 : 10.6
